Molecular target: α1A adrenoceptor subtype (rabbit urethra) (Oryctolagus cuniculus)
Sequence (O02824 whole entry): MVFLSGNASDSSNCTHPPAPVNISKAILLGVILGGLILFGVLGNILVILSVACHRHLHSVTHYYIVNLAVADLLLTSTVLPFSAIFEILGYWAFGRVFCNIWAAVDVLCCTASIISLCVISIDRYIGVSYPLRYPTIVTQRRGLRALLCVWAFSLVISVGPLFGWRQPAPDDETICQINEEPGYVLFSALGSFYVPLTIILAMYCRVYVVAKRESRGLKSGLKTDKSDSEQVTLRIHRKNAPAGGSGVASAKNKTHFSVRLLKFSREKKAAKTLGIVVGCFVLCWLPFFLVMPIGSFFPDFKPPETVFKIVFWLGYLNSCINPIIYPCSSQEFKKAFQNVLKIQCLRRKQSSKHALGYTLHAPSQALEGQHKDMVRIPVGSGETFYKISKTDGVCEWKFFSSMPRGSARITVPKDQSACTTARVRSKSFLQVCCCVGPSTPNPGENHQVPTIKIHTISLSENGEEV
Assay: Rabbit urethra tissue bath, agonism
Conditions: percent of phenylephrine (100%) contraction
Outcome measure: α1A efficacy (%)
Hi! Could you send only the number? It should be in %, unit omitted.

{"Molecule": "CCS(=O)(=O)Nc1cccc(Cc2c[nH]cn2)c1C [Compound A-286569]", "Target desc": "α1A adrenoceptor subtype (rabbit urethra) (Oryctolagus cuniculus)", "α1A efficacy [%]": 69}

Prompt: Fill blank: measured α1A efficacy of the molecule CCS(=O)(=O)Nc1cccc(Cc2c[nH]cn2)c1 [Compound A-286666] is ____.
Completion: 80

Prompt: Then what about the molecule CS(=O)(=O)Nc1c(O)ccc2c1CCCC2C1=NCCN1 (stereo not shown) [Compound A-61603, reference compound] ?
Completion: 88

Prompt: Then what about the molecule C[C@@H](N)[C@H](O)c1ccccc1 [PPA, phenylpropanolamine] ?
Completion: 68

---

Target: α1b adrenoceptor (hamster receptor expressed in mouse fibroblasts) (Mesocricetus auratus, UniProt P18841)
Sequence (P18841 1-515): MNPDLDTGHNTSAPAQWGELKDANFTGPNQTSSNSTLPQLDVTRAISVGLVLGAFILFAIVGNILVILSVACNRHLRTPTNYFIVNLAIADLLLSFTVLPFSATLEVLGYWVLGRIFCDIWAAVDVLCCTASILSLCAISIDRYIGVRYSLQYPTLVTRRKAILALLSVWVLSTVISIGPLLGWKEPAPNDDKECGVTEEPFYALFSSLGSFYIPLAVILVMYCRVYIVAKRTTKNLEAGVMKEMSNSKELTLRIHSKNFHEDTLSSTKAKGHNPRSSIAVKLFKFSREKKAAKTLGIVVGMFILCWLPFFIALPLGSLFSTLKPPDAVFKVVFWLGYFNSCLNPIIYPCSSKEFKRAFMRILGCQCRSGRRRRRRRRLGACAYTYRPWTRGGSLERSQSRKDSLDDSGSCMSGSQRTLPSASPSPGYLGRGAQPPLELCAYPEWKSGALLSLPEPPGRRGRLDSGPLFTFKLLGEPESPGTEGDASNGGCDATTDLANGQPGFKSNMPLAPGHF
pKi: −log10 of the molar value.
Outcome measure: pKi

Prompt: Fill blank: measured pKi of the molecule C[C@@H](N)[C@H](O)c1ccccc1 [PPA, phenylpropanolamine] is ____.
Completion: < 5.00

---

Molecular target: α1A adrenoceptor (rat submaxillary gland) (Rattus norvegicus, UniProt P43140)
Sequence (P43140 1-466): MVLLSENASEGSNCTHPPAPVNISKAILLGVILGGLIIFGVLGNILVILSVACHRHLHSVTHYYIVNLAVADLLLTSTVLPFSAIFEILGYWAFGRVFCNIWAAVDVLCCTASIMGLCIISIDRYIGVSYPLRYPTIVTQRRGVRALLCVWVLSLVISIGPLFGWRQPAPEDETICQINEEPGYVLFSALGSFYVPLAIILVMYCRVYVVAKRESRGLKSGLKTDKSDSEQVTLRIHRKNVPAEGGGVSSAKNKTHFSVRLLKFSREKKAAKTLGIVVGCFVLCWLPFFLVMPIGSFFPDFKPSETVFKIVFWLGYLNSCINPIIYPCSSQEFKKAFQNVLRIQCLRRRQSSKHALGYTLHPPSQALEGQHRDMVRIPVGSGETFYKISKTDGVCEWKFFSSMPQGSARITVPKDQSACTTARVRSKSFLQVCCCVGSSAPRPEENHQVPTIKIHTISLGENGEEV
Outcome measure: Ki

Prompt: Fill blank: measured Ki of the compound C[C@@H](N)[C@H](O)c1ccccc1 is ____.
Completion: > 10 µM
